Molecular target: human neutrophil elastase (HNE) (Homo sapiens)
Sequence (P08246 30-267): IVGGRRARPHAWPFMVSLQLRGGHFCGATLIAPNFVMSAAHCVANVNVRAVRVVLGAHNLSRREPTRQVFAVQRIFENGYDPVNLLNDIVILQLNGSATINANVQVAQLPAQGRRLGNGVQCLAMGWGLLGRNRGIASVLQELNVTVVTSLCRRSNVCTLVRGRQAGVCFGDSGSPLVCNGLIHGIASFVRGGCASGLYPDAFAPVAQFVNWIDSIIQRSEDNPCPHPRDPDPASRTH
Assay: Potency (I50 Determination), HNE inhibition
Settings: substrate N-methoxysuccinyl-ala-ala-pro-val-pNA, pH 7.7, 7 minutes incubation at room temperature, 405 nm
Protocol: Potency (I50 Determination) A) 0.075 M sodium phosphate, 20% dimethyl sulfoxide (DMSO), pH 7.7=substrate and inhibitor buffer B) 0.075 M sodium phosphate, no DMSO, pH 7.7=inhibitor buffer C) 10 mM human neutrophil elastase (HNE) substrate=N-methoxysuccinyl-ala-ala-pro-val-pNA in DMSO D) 0.01 M sodium acetate, 20% DMSO, pH 5.5=enzyme buffer (dilution) E) 0.01 M sodium acetate, pH 5.5 enzyme buffer (storage) F) HNE (1 mg) dissolved in 1 ML of reagent E for storage at -20° C. […]
VALUE_KIND: pIC50
Reminder that pIC50 is minus the log10 of a molar concentration.

[[record]]
compound = "CCC(C(=O)Oc1ccc([N+](=O)[O-])cc1)c1cccs1 (stereo not shown)"
value_kind = "pIC50"
result = 6.57

[[record]]
compound = "CCC(C(=O)Oc1ccc([N+](=O)[O-])cc1)c1cccn1C (stereo not shown)"
value_kind = "pIC50"
result = 6.70

[[record]]
compound = "CCC(C(=O)Oc1ccc(SCC(C)(C)C(=O)O)cc1)c1cccn1C (stereo not shown)"
value_kind = "pIC50"
result = 6.70

[[record]]
compound = "CCC(C(=O)Oc1ccc(SC)cc1)c1ccsc1 (stereo not shown)"
value_kind = "pIC50"
result = 5.82

[[record]]
compound = "CCC(C(=O)Oc1ccc([S+](C)[O-])cc1)c1cccs1 (stereo not shown)"
value_kind = "pIC50"
result = 6.37

[[record]]
compound = "CCC(C(=O)Oc1ccc(SC)cc1)c1coc2ccccc12 (stereo not shown)"
value_kind = "pIC50"
result = 5.42

[[record]]
compound = "CCC(C(=O)Oc1ccc(S(C)(=O)=O)cc1)c1cccs1 (stereo not shown)"
value_kind = "pIC50"
result = 6.54

[[record]]
compound = "CCC(C(=O)Oc1ccc(S(C)(=O)=O)cc1)c1ccoc1 (stereo not shown)"
value_kind = "pIC50"
result = 6.33

[[record]]
compound = "CCC(C(=O)Oc1ccc([S+](C)[O-])cc1)c1coc2ccccc12 (stereo not shown)"
value_kind = "pIC50"
result = 6.38

[[record]]
compound = "CCC(C(=O)Oc1ccc(S(C)(=O)=O)cc1)c1ccsc1 (stereo not shown)"
value_kind = "pIC50"
result = 7.30


Check human neutrophil elastase (HNE) (Homo sapiens) data and give pIC50 for CCC(C(=O)Oc1ccc(S(C)(=O)=O)cc1)c1cccn1C (stereo not shown) . 7.22

Check human neutrophil elastase (HNE) (Homo sapiens) data and give pIC50 for CCC(C(=O)Oc1ccc([S+]([O-])CC(C)(C)C(=O)O)cc1)c1cccn1C (stereo not shown) . 6.23

Check human neutrophil elastase (HNE) (Homo sapiens) data and give pIC50 for CCC(C(=O)Oc1ccc(SC)cc1)c1c[nH]c2ccccc12 (stereo not shown) . 4.48

Check human neutrophil elastase (HNE) (Homo sapiens) data and give pIC50 for CCC(C(=O)Oc1ccc(SC)cc1)c1cccs1 (stereo not shown) . 5.52

Check human neutrophil elastase (HNE) (Homo sapiens) data and give pIC50 for CCC(C(=O)Oc1ccc([N+](=O)[O-])cc1)c1ccsc1 (stereo not shown) . 6.92

Check human neutrophil elastase (HNE) (Homo sapiens) data and give pIC50 for CCC(C(=O)Oc1ccc([S+](C)[O-])cc1)c1ccsc1 (stereo not shown) . 6.89

Every entry's value here was drawn from patent US5314910A.
